Ref: BindingDB's records for doi:10.7270/Q2B27SRF

- system.under.test: Serine/threonine-protein kinase 33 (Homo sapiens, UniProt Q9BYT3)
- Sequence (Q9BYT3 whole entry): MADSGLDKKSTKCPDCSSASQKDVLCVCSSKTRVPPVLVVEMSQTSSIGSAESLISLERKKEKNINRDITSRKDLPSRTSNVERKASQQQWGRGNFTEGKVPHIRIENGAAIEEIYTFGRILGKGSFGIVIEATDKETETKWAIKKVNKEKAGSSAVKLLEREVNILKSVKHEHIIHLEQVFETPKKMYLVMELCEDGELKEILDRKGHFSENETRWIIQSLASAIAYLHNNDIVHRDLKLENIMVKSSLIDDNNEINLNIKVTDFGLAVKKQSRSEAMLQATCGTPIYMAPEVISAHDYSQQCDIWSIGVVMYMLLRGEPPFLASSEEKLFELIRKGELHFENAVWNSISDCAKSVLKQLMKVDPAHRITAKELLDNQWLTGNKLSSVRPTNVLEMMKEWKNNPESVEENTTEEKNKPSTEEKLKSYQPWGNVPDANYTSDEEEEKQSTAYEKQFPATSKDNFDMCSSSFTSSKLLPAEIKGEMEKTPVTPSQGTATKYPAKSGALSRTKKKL
- run.description: STK33 kinase inhibitors, dose response, biochemical, luminescence, cell-free, retest (AID 2821)
Would you mind telling me the reported EC50 of each entry?
Kindly answer with a numeric value in µM, unit omitted.

Exam item: Entry `CC[C@H](CO)Nc1nc(Nc2cccc(Cl)c2)c2ncn(C(C)C)c2n1` has what EC50?
Marked response: 2.49

Exam item: Repeat for the following compound: `Oc1ccc(C=Nn2c(-c3ccccc3)n[nH]c2=S)cc1`
Marked response: 25.8

Exam item: Repeat for the following compound: `Nc1nc(N)nc(-c2cc(O)ccc2O)n1`
Marked response: 7.05

Exam item: Repeat for the following compound: `O=C1c2ccccc2-c2onc3ccc(NCCCn4ccnc4)c1c23`
Marked response: 8.03

Exam item: Repeat for the following compound: `N#Cc1c2ccc(O)cc2n2ccccc12`
Marked response: 4.59

Exam item: Repeat for the following compound: `Cc1ccc(-c2nn(CCC(=O)O)cc2/C=C\C(=O)c2ccc(Br)cc2)cc1`
Marked response: 19.3

Exam item: Repeat for the following compound: NC(=S)c1cn(C2OC(CO)C(O)C2O)c2ncnc(N)c12 (stereo unspecified)
Marked response: 3.48

Exam item: Repeat for the following compound: `Cc1cc(C=C2C(=O)c3ccccc3C2=O)c(C)n1-c1ccc(C(=O)O)cc1`
Marked response: 19.3

Exam item: Repeat for the following compound: `COc1cc(C=Nn2c(-c3cc(C)[nH]n3)n[nH]c2=S)ccc1O`
Marked response: 27.6

Exam item: Repeat for the following compound: `O=C(O)c1cccc(Nc2nc(-c3cccnc3)nc3ccccc23)c1`
Marked response: 32.5

Exam item: Repeat for the following compound: COc1cc(C)c2c(c1C=O)Oc1c(c(C)c(O)c3c1C(O)OC3=O)OC2=O (stereo unspecified)
Marked response: 32

Exam item: Repeat for the following compound: CCN1C(=O)CC(c2ccccc2)N(C2CCCC2)c2nc(Nc3ccc(C(=O)NC4CCN(C)CC4)cc3OC)ncc21 (stereo unspecified)
Marked response: 7.93

Exam item: Repeat for the following compound: `COc1cccc(C(=O)ON=C(N)c2ccccn2)c1`
Marked response: 22.7

Exam item: Repeat for the following compound: `CCn1c2ccccc2c(=O)c2ccccc21`
Marked response: 16.7

Exam item: Repeat for the following compound: `CN(C)/C=C/C(=O)c1ccc2noc(-c3ccccc3)c2c1`
Marked response: 15.9
